system: SW-620 colon; assay: NCI tumour cell line growth inhibition, 48 h
ATTRIBUTE_MEASURED: GI50

- SMILES_STR: "S=C(Nc1ccc(-c2nc3ccccc3[nH]2)cc1)NC1CCCCC1"
  ATTRIBUTE_MEASURED: "GI50"
  OBSERVED: "31.6 µM"
- SMILES_STR: "c1ccc2c(c1)[I+]c1ccccc1-2"
  ATTRIBUTE_MEASURED: "GI50"
  OBSERVED: "> 50 µM"
- SMILES_STR: "CC[N+](CCCCCCCCCC[N+](CC)(c1ccccn1)c1ccccn1)(c1ccccn1)c1ccccn1"
  ATTRIBUTE_MEASURED: "GI50"
  OBSERVED: "2.14 µM"
- SMILES_STR: "Cc1ccc(C(=O)c2oc3ccc4c(C)cc(=O)oc4c3c2C)cc1"
  ATTRIBUTE_MEASURED: "GI50"
  OBSERVED: "8.56 µM"
- SMILES_STR: "Cc1cc(/C=C2\\SC(=Nc3ccccc3)N(C3CCCC3)C2=O)c(C)n1-c1ccc(Cl)cc1"
  ATTRIBUTE_MEASURED: "GI50"
  OBSERVED: "> 100 µM"
- SMILES_STR: "CC1(C)C=CC[C@]2(C)[C@H]3CC[C@@H]4[C@H]5[C@H](C(=O)/C=C/c6cccnc6)CC[C@]5(CO)CC[C@@]4(C)[C@]3(C)CC[C@@H]12"
  ATTRIBUTE_MEASURED: "GI50"
  OBSERVED: "1 µM"

----------
tested on: HL-60(TB) leukemia; test: NCI tumour cell line growth inhibition, 48 h
// reported TGI for each item listed

- MOLECULE: "CCOC(=O)CCC(=O)C1c2cccc(O)c2C(=O)c2c(O)cccc21"
  RELATION_OPERATOR: "="
  TGI, µM: 0.657
- MOLECULE: "O=C1C=C(c2c(O)ccc3ccccc23)c2ccccc2C1=O"
  RELATION_OPERATOR: "="
  TGI, µM: 15.3
- MOLECULE: "CN1CCN(CCSC2Cc3cc(Cl)ccc3Sc3ccccc32)CC1 (stereo unspecified)"
  RELATION_OPERATOR: "="
  TGI, µM: 5.46
- MOLECULE: "CC(C)=CC(C(O)c1ccccc1)S(=O)(=O)c1nccn1C (stereo unspecified)"
  RELATION_OPERATOR: ">"
  TGI, µM: 100
- MOLECULE: "Cc1nn(C(=O)c2ccccc2O)c2c1C(c1ccccc1)SC(N)=N2 (stereo unspecified)"
  RELATION_OPERATOR: "="
  TGI, µM: 3.58
- MOLECULE: "CN1CC(c2ccccc2)N(CCCCN2CC(c3ccccc3)N(C)CC2c2ccccc2)CC1c1ccccc1 (stereo unspecified)"
  RELATION_OPERATOR: ">"
  TGI, µM: 100
- MOLECULE: "CCOc1ccc(/C=C/C(=O)c2ccccc2)cc1"
  RELATION_OPERATOR: "="
  TGI, µM: 94.5
- MOLECULE: "Cc1nc2ccc(C(F)(F)F)cc2nc1Nc1ccc(Cl)c(Cl)c1"
  RELATION_OPERATOR: "="
  TGI, µM: 24
- MOLECULE: "N#Cc1c2c(c(N3CCOCC3)n3c1nc1ccccc13)CCCC2"
  RELATION_OPERATOR: "="
  TGI, µM: 35.5
- MOLECULE: "CC(C)(C)OC(=O)N1C(OP(=O)(Oc2ccccc2)Oc2ccccc2)=COc2cccnc21"
  RELATION_OPERATOR: "="
  TGI, µM: 36.6
- MOLECULE: "O=C1C(Br)=C[C@H]2C3C=CC(Br)(C3=O)[C@@H]12 (stereo partly specified)"
  RELATION_OPERATOR: "="
  TGI, µM: 23
- MOLECULE: "CSC(=NC1=NC(C(F)(F)F)(C(F)(F)F)N=C(c2ccccc2)O1)SC"
  RELATION_OPERATOR: "="
  TGI, µM: 64
- MOLECULE: "COc1ccc(NC(=O)C2C(=O)N(c3ccc(OC)cc3)C(=O)/C2=N/O)cc1 (stereo unspecified)"
  RELATION_OPERATOR: ">"
  TGI, µM: 100
- MOLECULE: "C[CH2][Sn]1([CH2]C)[O]C(=O)[O][Sn]([CH2]C)([CH2]C)[O]1"
  RELATION_OPERATOR: "="
  TGI, µM: 81.7
- MOLECULE: "CN1CCN(Cc2ccc(NC(=O)c3cncc(C#Cc4cnc(N)c5ccc(F)cc45)c3)cc2C(F)(F)F)CC1"
  RELATION_OPERATOR: "="
  TGI, µM: 4.42
- MOLECULE: "O=C(Nc1cccc(-c2cn3ccccc3n2)c1)c1ccncc1"
  RELATION_OPERATOR: "="
  TGI, µM: 45.8
- MOLECULE: "NC(N)=N/N=C(/c1nc2ccc([N+](=O)[O-])cc2[nH]c1=O)C(O)c1ccco1 (stereo unspecified)"
  RELATION_OPERATOR: ">"
  TGI, µM: 100
- MOLECULE: "CCCCCCCCCCCCCCCCCCOCC(O)COP(=O)(O)OCC1OC(n2cc(F)c(=O)[nH]c2=O)CC1O (stereo unspecified)"
  RELATION_OPERATOR: "="
  TGI, µM: 25.1
- MOLECULE: "CCN(CC)CCC1CC/C(=C\\c2ccc(OC)cc2)C1=O (stereo unspecified)"
  RELATION_OPERATOR: ">"
  TGI, µM: 100
- MOLECULE: "CC(=O)O[C@H]1C(N(C)C(=O)c2ccccc2)CC[C@]2(C)C3CC[C@@]4(C)C(CC(O)[C@@H]4C(C)N(C)C)[C@@H]3CCC12 (stereo partly specified)"
  RELATION_OPERATOR: ">"
  TGI, µM: 100
- MOLECULE: "CCOC(=O)C(C)(C)Oc1ccc2c(=O)cc(-c3ccc(Cl)cc3)oc2c1"
  RELATION_OPERATOR: ">"
  TGI, µM: 100
- MOLECULE: "COP1(=O)CC2C(Cl)(Cl)C2(C)C1 (stereo unspecified)"
  RELATION_OPERATOR: ">"
  TGI, µM: 100
- MOLECULE: "COc1ccc(-c2c(C#N)c(-c3ccccc3)n(NS(=O)(=O)c3ccccc3)c(=O)c2C#N)cc1"
  RELATION_OPERATOR: ">"
  TGI, µM: 100
- MOLECULE: "CC1=CSC2=NC(c3ccc(Cl)c(Cl)c3)=CC(c3ccc(Cl)cc3)N12 (stereo unspecified)"
  RELATION_OPERATOR: ">"
  TGI, µM: 100
- MOLECULE: "O=[N+]([O-])c1c(/C=N/Nc2ccccc2)oc(-c2ccc3c(c2)OCO3)c1-c1ccc2c(c1)OCO2"
  RELATION_OPERATOR: "="
  TGI, µM: 33.5
- MOLECULE: "C=CCc1cc2cccc(OC)c2oc1=O"
  RELATION_OPERATOR: ">"
  TGI, µM: 100
- MOLECULE: "O=C(O)c1ccc(Nc2nc3cc(C(F)(F)F)ccc3nc2C(=O)O)cc1"
  RELATION_OPERATOR: ">"
  TGI, µM: 100
- MOLECULE: "COc1cc(C2C3=C(COC3=O)OC(C)(C)Oc3cc4c(cc32)OCO4)cc(OC)c1OC (stereo unspecified)"
  RELATION_OPERATOR: "="
  TGI, µM: 1.26
- MOLECULE: "COc1ccc(CNc2nc(NCc3ccc(OC)cc3)nc(N3CCOCC3)n2)cc1"
  RELATION_OPERATOR: "="
  TGI, µM: 13.6
- MOLECULE: "Cc1cc(S(=O)(=O)Nc2nnc3cc(C(F)(F)F)cc(C)n23)c(S)cc1Cl"
  RELATION_OPERATOR: ">"
  TGI, µM: 100
- MOLECULE: "CCCCCCCCCCCCCCCCNc1nc(=O)n(C2CC(O)C(CO)O2)cc1F (stereo unspecified)"
  RELATION_OPERATOR: "="
  TGI, µM: 27.7
- MOLECULE: "CCOC(=O)C1=C(C)NC(=S)NC1c1cccc(O)c1 (stereo unspecified)"
  RELATION_OPERATOR: "="
  TGI, µM: 77.5
- MOLECULE: "CCOc1ccccc1NC(=O)/C=C1\\NC(=O)CS1"
  RELATION_OPERATOR: ">"
  TGI, µM: 100
- MOLECULE: "Cc1cc(S(=O)(=O)Nc2nc(N)nc(N3N=CCC3C)n2)c(S)cc1Cl (stereo unspecified)"
  RELATION_OPERATOR: ">"
  TGI, µM: 10
- MOLECULE: "Cc1ccc(S(=O)(=O)N2CCN(CCN(C)CCN3CCN(S(=O)(=O)c4ccc(C)cc4)CC3)CC2)cc1"
  RELATION_OPERATOR: "="
  TGI, µM: 33.6
- MOLECULE: "CC(C)(C)N1Cc2ccccc2/C(=C/Sc2ccccc2)C1=O"
  RELATION_OPERATOR: "="
  TGI, µM: 39.8
- MOLECULE: "COc1ccc(/C=C/c2cc(OC)c(OC)c(OC)c2)cc1NC(=O)/C=C/c1ccc(F)cc1"
  RELATION_OPERATOR: "="
  TGI, µM: 7.47
- MOLECULE: "COC1=CC23C=CC1[C@@H](c1ccccc1)C2=C(C)C(=O)N3C(=O)NC1CCCCC1 (stereo partly specified)"
  RELATION_OPERATOR: ">"
  TGI, µM: 100
- MOLECULE: "CC1CC(c2ccccc2)=Nc2ccccc2S1(=O)=O (stereo unspecified)"
  RELATION_OPERATOR: "="
  TGI, µM: 52.8
- MOLECULE: "CCCCC#COP(=O)(OCC)OCC"
  RELATION_OPERATOR: ">"
  TGI, µM: 100
- MOLECULE: "CCCCCCC/C=C/[C@H]1O[C@]23C(=O)C[C@@]4(C[C@@H](OC5OC(CO)C(O)C(O)C5O)C[C@@H]4[C@H]2C=C1C)OC3=O (stereo partly specified)"
  RELATION_OPERATOR: "="
  TGI, µM: 7.53

The values you see were collected from PubChem BioAssay (NCI).
